target: HER2 WT (Homo sapiens, UniProt P04626); test: Activity for inhibiting HER2 (Table B), HER2 WT; type: cell-based; details: Table B; read-out: HER2 WT, potency code (IC50)
Sequence (P04626 23-1255): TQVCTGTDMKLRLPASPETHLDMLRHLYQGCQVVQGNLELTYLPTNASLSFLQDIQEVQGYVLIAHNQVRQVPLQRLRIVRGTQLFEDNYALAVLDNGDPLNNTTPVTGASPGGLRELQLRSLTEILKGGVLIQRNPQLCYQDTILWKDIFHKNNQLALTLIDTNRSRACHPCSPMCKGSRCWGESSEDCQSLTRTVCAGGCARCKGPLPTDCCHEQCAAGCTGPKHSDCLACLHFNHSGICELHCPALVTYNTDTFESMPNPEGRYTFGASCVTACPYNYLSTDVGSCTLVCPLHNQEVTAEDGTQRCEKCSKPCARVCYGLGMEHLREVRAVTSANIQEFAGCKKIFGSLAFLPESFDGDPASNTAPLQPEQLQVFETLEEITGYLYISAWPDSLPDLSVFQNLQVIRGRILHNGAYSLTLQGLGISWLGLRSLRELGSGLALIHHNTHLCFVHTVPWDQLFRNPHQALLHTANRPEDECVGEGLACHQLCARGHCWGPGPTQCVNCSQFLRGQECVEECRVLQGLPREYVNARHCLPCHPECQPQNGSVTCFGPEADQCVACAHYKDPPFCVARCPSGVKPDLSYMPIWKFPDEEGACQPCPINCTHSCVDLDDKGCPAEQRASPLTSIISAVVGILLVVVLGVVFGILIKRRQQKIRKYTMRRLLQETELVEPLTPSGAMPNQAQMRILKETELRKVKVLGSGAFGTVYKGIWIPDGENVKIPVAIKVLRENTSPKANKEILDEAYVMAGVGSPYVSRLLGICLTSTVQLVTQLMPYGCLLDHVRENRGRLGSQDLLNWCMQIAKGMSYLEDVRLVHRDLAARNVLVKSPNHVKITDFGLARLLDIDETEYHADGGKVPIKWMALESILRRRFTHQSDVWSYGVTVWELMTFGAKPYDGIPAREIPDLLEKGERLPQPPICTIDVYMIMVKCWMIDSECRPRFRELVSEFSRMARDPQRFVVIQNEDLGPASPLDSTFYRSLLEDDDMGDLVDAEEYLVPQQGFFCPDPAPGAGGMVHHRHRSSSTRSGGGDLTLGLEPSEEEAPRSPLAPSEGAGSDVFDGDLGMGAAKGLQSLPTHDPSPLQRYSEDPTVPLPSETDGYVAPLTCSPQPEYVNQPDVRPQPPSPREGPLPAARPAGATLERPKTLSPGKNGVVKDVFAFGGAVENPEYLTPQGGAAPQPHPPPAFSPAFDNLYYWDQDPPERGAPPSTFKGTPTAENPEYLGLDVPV
PARAMETER: IC50

# COMPOUND, IC50
rows = [
    ("C=CC(=O)Nc1cc2c(Nc3ccc(OCc4ccccn4)c(Cl)c3)ncnc2cc1OCCN1CC2CC1CO2 (stereo not drawn)", "5 to 10 nM"),
]

Endpoint output: IC50 of C=CC(=O)Nc1cc2c(Nc3ccc(OCc4ccccn4)c(Cl)c3)ncnc2cc1N1CC2CN(C)CC2C1 (stereo not drawn) . Value?
10 to 20 nM

Next entry: C=CC(=O)Nc1cc2c(Nc3ccc(OCc4ccccn4)c(Cl)c3)ncnc2cc1O[C@H]1CCN(C)C1
5 to 10 nM
